Biological target: Adenosine receptor A2a (Rattus norvegicus)
Assay: Displacement of [3H]NECA from adenosine A2A receptor in rat striatal membranes at 100 uM by radioligand competition assay relative to control
Format: cell membranes
Settings: Striatum, Membrane
Readout label: inhibition (%)

Below are worked cases with known answers.
CN(C)c1ccc(/C=C2\Cc3ccccc3C2=O)cc1 : 65
COc1cccc2c1C/C(=C\c1ccc(O)cc1)C2=O : 65

(I) COc1ccc2c(c1)C/C(=C\c1ccc(N(C)C)cc1)C2=O
(II) COc1cccc2c1CCC2=O
Q) Which of these two has the smaller recorded inhibition: I or II ? Respond using the label that marks the chosen record.
A) I
(I: 47%, II: 72%)

(a) COc1cccc2c1C/C(=C\c1ccccc1)C2=O
(b) COc1cccc2c1C/C(=C\c1ccc(N(C)C)cc1)C2=O
Q) Returns the identifier with the smallest measured inhibition among a and b . Give the chosen item's label as your response.
A) b

(I) COc1ccc2c(c1)C/C(=C\c1ccccc1)C2=O
(II) COc1cc(OC)c(OC)cc1/C=C1\Cc2c(OC)cccc2C1=O
Q) Lab note: check whether I or II shows the higher recorded inhibition. // return label of chosen record
A) I
